Assay: folding stability dG unfold (combined trypsin and chymotrypsin); higher = more stable
Entry flag: Satisfied if folding stability dG unfold reaches 3 kcal/mol; Not satisfied if it does not.

These solved cases illustrate the format of a correct answer.
# monomer_sequence, category_label
data = [
    ("SAGGSAMEVKIIPGSKEAIINDPENGKPIPATIIEIEPIEPDKNLFKAKVKIPSNGGWKEVLVDLGSAGGSA [r15_209_TrMRF]", "Not satisfied"),
    ("SAGGGDWYKVTVKVDGNPEVAEALVEKLLEEVGEEVVFEPRPGEQTVTFYVPKELLPLLEELGIEVEPSAGG [r13_156_TrMRF]", "Not satisfied"),
    ("SAGGSAGGDPPNVKIEPEIEPRRDPDGKPYVKIPYTIELPDGRPIQIDMWIDPKNGNQGPHIHISAGGSAGG [r6_298_TrROS]", "Not satisfied"),
    ("SMFRIRFKDGSEFDIELNEDGELTITNKNGKKITLTFKTKEEALKAAEELKKKYPNMKVEIEEVSPEELKSA [r9_1206_TrROS_Hall]", "Satisfied"),
    ("SAGSSVTAPFSLPSDLVVDSVTYDPDAKTVTVTVTDPRGGRKAVGTFPVWDPNGNPVLSTADSYTFDNPSAG [r5_434_TrMRF]", "Not satisfied"),
    ("SEKPLVTLELELVVETEEQARAAVEALLAALPEEEIVDIRVEVEEVDVFENGELVGRRRRVRVTIVVRRPSA [r9_605_TrROS_Hall]", "Satisfied"),
    ("SAGGSAGGSPPDFVIQPEVEHTRDPENGKHEATVKIEIMDGRPIEIPFKSPEDAEDAIKELINSAGGSAGGS [r12_389_TrROS]", "Not satisfied"),
    ("SPEGKDEKGVSYPIIVEKPDPKITPEKIKKAIEEAGGKVTKIVRPKKGKLLVVDVEVTDPEKAIEAIKKDSA [r9_1154_TrMRF]", "Not satisfied"),
    ("SAGSSMSLPLPEEIEIEIPNPGLSLEEIKKIVADKLGLKIVSVEEEEGRLVFKAENGIPIRVKIEEPGKSAG [r5_350_JUSTAS]", "Not satisfied"),
    ("SAGGSMVTETLSVEETVEPLPDGLVRVPVRTEIRVTRKDPTTGKWTTELRTEEVVLVVPASGLEAASAGGSA [r2_184_JUSTAS]", "Not satisfied"),
]

Enquiry: Has SAGGPKIKIEAFPDGTVKITIELPDGVTIVIELKFDPETGTVHAKITLLPKDKPVTFEFTFKIPPDASAGGS [r16_230_TrMRF] a recorded folding stability dG unfold greater than or equal to 3 kcal/mol?
Return: Satisfied

Enquiry: Has SAGGSAGGSAMVVPRTYRVPPGLTVEEVADYLRAKDPNVIDATAERRPDGYLLVTVLVRLDSAGGSAGGSAG [r3_371_TrMRF] a recorded folding stability dG unfold greater than or equal to 3 kcal/mol?
Return: Not satisfied

Enquiry: Has SAGGSAGGSALSPDDVEPIDEEPFHNPGGNPMNIGIWKNPDDGKPFIRNPGNGNPFPADDLSAGGSAGGSAG [r3_181_TrROS] a recorded folding stability dG unfold greater than or equal to 3 kcal/mol?
Return: Not satisfied

Enquiry: Has SAGGSAGGSAGMKLIEFPPGEEFEEFIKNLPGPIKSVERTKIEPEKVLAKIVLELPPSNLSAGGSAGGSAGG [r11_143_JUSTAS] a recorded folding stability dG unfold greater than or equal to 3 kcal/mol?
Return: Not satisfied

Enquiry: Has SAGGSAGGSMVTPDGRLVIEIEVSEEDIEKLKEEARKKLGVKEVKVEVEEKDGKLKVRIVVEPSAGGSAGGS [r12_929_TrROS_Hall] a recorded folding stability dG unfold greater than or equal to 3 kcal/mol?
Return: Not satisfied

Enquiry: Has SAGGSAGGSAGGMIRIVNEETGEEIEISPEELEELLAKSDKPVRIEVDGKVIPLDAKDLSAGGSAGGSAGGS [r10_839_TrROS_Hall] a recorded folding stability dG unfold greater than or equal to 3 kcal/mol?
Return: Not satisfied

Enquiry: Has SAGGSAGGSPNTVPIPIRVEWYDPKDGEPKDEHPFNINFKTEEEAEDIIDNIAPDHPGMKIEISAGGSAGGS [r12_1043_TrROS] a recorded folding stability dG unfold greater than or equal to 3 kcal/mol?
Return: Not satisfied

Enquiry: Has SAGGSKKKIYKIKIKIEVINEETGEKKTVEIEIEAESLEEALAAIAKALLPEGQTVKIVDIEIEEVSAGGSA [r2_320_TrROS_Hall] a recorded folding stability dG unfold greater than or equal to 3 kcal/mol?
Return: Satisfied

Enquiry: Has SAGGSAGGSAGMTPGPAPRPKVTVEPSLSEVPEDDSIVTTTTVTFPDTGETTSSTTTSSASAGGSAGGSAGG [r17_31_JUSTAS] a recorded folding stability dG unfold greater than or equal to 3 kcal/mol?
Return: Not satisfied

Enquiry: Has SAGGSAGGSAGGSFEVVSVDETVTVPPGATVTIVVRDENGKLLTFTFEVRLVPPPPEEESAGGSAGGSAGGS [r10_573_TrROS_Hall] a recorded folding stability dG unfold greater than or equal to 3 kcal/mol?
Return: Not satisfied

Enquiry: Has SDLRNMPIEELAKRIAREHGIEDVKVEVSRTGDSLTIPIEIRDPEQGMKYKVMIMVDPPDDGRIGIGVERSA [r9_1042_TrROS] a recorded folding stability dG unfold greater than or equal to 3 kcal/mol?
Return: Not satisfied

Enquiry: Has SAGEKEFEIVEVKVNKETNEVYFLVRDKEKNRLIKVHSNGTVEIYDLKDPGKKITINMSLEELLALLKKSAG [r5_491_TrROS_Hall] a recorded folding stability dG unfold greater than or equal to 3 kcal/mol?
Return: Satisfied

Enquiry: Has SAGGSAGGSAGGSPVAAKTLSKSTSLLPNGKVKTSTTTAFPTGETTTTTTTTPLSLTLTSAGGSAGGSAGGS [r10_1206_JUSTAS] a recorded folding stability dG unfold greater than or equal to 3 kcal/mol?
Return: Not satisfied

Enquiry: Has SAGGSAGGSAGKMYKLTIEKDGKEIEIIVSEDELKEIAKKLGLPPNAKIKVEKVSPEELKSAGGSAGGSAGG [r17_395_TrROS_Hall] a recorded folding stability dG unfold greater than or equal to 3 kcal/mol?
Return: Satisfied

Enquiry: Has SAGGSAGGSLDPGEEVKIEITDWHPPNGYYRIKIEFPNGPPIDIWMPPDDPQQMKEQAKDLIKSAGGSAGGS [r20_167_TrROS] a recorded folding stability dG unfold greater than or equal to 3 kcal/mol?
Return: Not satisfied
